tested on: hepatocellular carcinoma cell line Hub-7; assay: Cell proliferation assay, Hub-7 (CELL-TITER GLO); assay type: cell-based; conditions: Hub-7 cells, 24 h incubation, cell viability by CELL-TITER GLO, top concentration 10 μM; read-out: EC50, Inhibition of Hub-7 Cell Proliferation
assay-readout: EC50

For orientation, consider the following solved cases.
C#Cc1nc(C(=O)NCc2cccc(CC(N)=O)c2)cs1 : 1000 to 5000 nM
C#Cc1nc(C(=O)NCCc2ccccc2C#N)cs1 : 1000 to 5000 nM
C#Cc1nc(C(=O)NCc2cccc(-c3ccccc3)c2)cs1 : ≤ 200 nM
C#Cc1nc(C(=O)NCCc2ccc(-c3cc4ncsc4cc3F)cc2)cs1 : 200 to 1000 nM

Let us examine a further case.
So, C#Cc1nc(C(=O)NCCc2ccc(-c3c(F)ccc4ncsc34)cc2)cs1 ? Its EC50 was ≤ 200 nM
